- System: POLCO: Polygonum convolvulus
- Assay Protocol: Post-emergence herbicidal action
- Assay type: in vivo
- Condition: Table C3, post-emergence, 320 g/ha, rated visually after about 3 weeks
Quantity Name: Herbicidal action against [%] POLCO (%)

Molecule | U | Numeric Value
Cc1cc(F)cc(C2=NOC(C(=O)NC3CCC(C(=O)OCC(F)(F)F)C3)(C(F)(F)F)C2)c1 (mixture of isomers) [Example I-580] | % | 80
CCOC(=O)C1CCC(NC(=O)C2(C(F)(F)F)CC(c3cc(C)cc(Cl)c3)=NO2)C1 (mixture of isomers) [Example I-808] | % | 100
Cc1cc(F)cc(C2=NOC(C(=O)NC3CCC(C(=O)OCCCl)C3)(C(F)(F)F)C2)c1 (mixture of isomers) [Example I-574] | % | 80
COC(=O)C1CCC(NC(=O)C2(C(F)(F)F)CC(c3cc(C)cc(F)c3)=NO2)C1 (mixture of isomers) [Example I-537] | % | 90

src = patent US20200369630A1
